Data origin, for the record: a melting point compilation (Tetko et al.)

In this section, each of the compounds is paired with its reported melting point.

Example cases with answers are listed next.
NCCn1ncc2ccccc2c1=O: 87 to 89 °C
O=C(c1cccc(F)c1)c1cccc(Cl)c1: 62 to 64 °C
Nc1ccc2nc[nH]c(=O)c2c1: 309 to 311 °C
COc1cc(C=O)ccc1OCC#N: 75 to 77 °C
O=C(O)c1ncoc1CCC(F)(F)F: 139 to 141 °C

Entry `CCN(CC)c1ccc(NC(=O)CCl)cc1` — recorded melting point = 141 to 143 °C

Entry `O=C(O)CCc1cc(Cl)ccc1Br` — recorded melting point = 83 to 85 °C

Entry `CCOC(=O)Cc1nnc(S)n1C` — recorded melting point = 135 to 137 °C

Entry `CS(=O)(=O)Cc1ccc(C(=O)O)cc1` — recorded melting point = 253 to 255 °C

----------
In this section, each of the compounds is paired with its reported melting point.

Example cases with answers are listed next.
O=S(=O)(Cc1nc2ccccc2[nH]1)c1ccccc1: 215 to 217 °C
O=C(O)C1CC(=O)N(c2cccc(Br)c2)C1 (configuration not stated): 142 to 144 °C
CCN1CCN(c2ccc(C#N)cn2)CC1: 69 to 71 °C

Entry `Nc1cccc(CNC(=O)Nc2ccccc2Cl)c1` — recorded melting point = 177 to 179 °C

Entry `O=C(O)CCN1C(=O)COc2cc(Br)ccc21` — recorded melting point = 153 to 155 °C

Entry `O=C(O)c1ccc(S(=O)(=O)Nc2cccc(Cl)c2F)o1` — recorded melting point = 151 to 153 °C

Entry `COc1cc(CN)ccc1OCCO` — recorded melting point = 113 to 115 °C

----------
OBSERVED_PROPERTY: melting point

COc1cccc(COCC(N)=NO)c1: 59 to 61 °C

Entry `O=C(O)CNC(=O)CCC1CCCC1` — recorded melting point = 112 to 114 °C

Entry `Cc1nn(C(C)(C)C)c2nc(C(C)C)cc(C(=O)O)c12` — recorded melting point = 121 to 123 °C

Entry `CN(C)C(=O)c1ccc(Cl)c(N)c1` — recorded melting point = 76 to 78 °C

Entry `O=C(O)CCCNC(=O)OCc1ccccc1` — recorded melting point = 60 to 64 °C

Entry `CCOc1cc(C#N)cc(Cl)c1O` — recorded melting point = 126 to 128 °C

Entry `Nc1ncnc2c(F)cc(Br)cc12` — recorded melting point = 343 to 345 °C

----------
OBSERVED_PROPERTY: melting point

Example cases with answers are listed next.
Cc1nsc2ncc(C(=O)O)cc12: 179 to 181 °C
CC(C)n1c(S)nc2ccccc21: 138 to 140 °C
CSc1cc(C(=O)O)ccn1: 218 to 220 °C
NNc1ncccc1C(F)(F)F: 71 to 73 °C
Cn1nc(C(F)(F)F)c(C(=O)O)c1C(F)(F)Cl: 119 to 121 °C
CCn1nnnc1-c1cccc(N)c1: 118 to 120 °C

Entry `CCOc1ccc(Cl)c(C(=O)O)n1` — recorded melting point = 127 to 129 °C

----------
OBSERVED_PROPERTY: melting point

Entry `Cn1cc(C(=O)O)c(-c2ccc3c(c2)OCCCO3)n1` — recorded melting point = 199 to 201 °C

Entry `FC(F)(F)CNC(=S)N1CCOCC1` — recorded melting point = 103 to 105 °C

Entry `N#Cc1cc(S(=O)(=O)Cl)ccc1Cl` — recorded melting point = 49 to 51 °C

Entry `O=C(C=NO)Nc1ccc(F)cc1Cl` — recorded melting point = 145 to 147 °C

----------
In this section, each of the molecules is paired with its reported melting point.

Nc1nc(Cl)c(Cl)c(N)c1Cl: 206 to 208 °C
Nc1cc(C2CC2)nn1-c1ncccn1: 144 to 146 °C
COc1ccc(CC2CC(=O)N2)cc1 (centres undefined): 97 to 99 °C
CC(C)(C)OC(=O)NC1CCC(O)CC1 (centres undefined): 169 to 171 °C
Cc1nc2cc(NC(=O)CCC(=O)O)ccc2o1: 184 to 186 °C
Cc1n[nH]c(N)c1-c1ccc2c(c1)OCCO2: 120 to 122 °C
Cn1nnnc1SCC(=O)O: 108 to 110 °C
O=C(CCl)NC1CCCC1: 73 to 75 °C

Entry `COc1ccc(C=O)cc1SC` — recorded melting point = 44 to 46 °C

Entry `Cc1ccc(C(=O)O)cc1NC(=O)Nc1ccccc1` — recorded melting point = 309 to 311 °C

Entry `Nc1ccc2[nH]c(-c3ccc(F)cc3)nc2c1` — recorded melting point = 118 to 120 °C

Entry `COc1ccc2c(c1)C=C(C(=O)O)CO2` — recorded melting point = 184 to 186 °C

Entry `COc1ncnc(N)c1C=O` — recorded melting point = 197 to 199 °C

Entry `Nc1ccc(-c2nc3cc(Br)ccc3[nH]2)cc1` — recorded melting point = 219 to 221 °C

----------
In this section, each of the compounds is paired with its reported melting point.

COc1cc(OC)cc(-c2cc(N)on2)c1: 116 to 118 °C
O=C(O)CC(O)(c1nc2ccccc2o1)C(F)(F)F (stereo not drawn): 194 to 196 °C
COc1ccc(C(N)c2cccc(S(C)(=O)=O)c2)cc1 (stereo not drawn): 80 to 82 °C
O=C(CCl)Nc1ccc(N2CCCCC2)nc1: 139 to 141 °C
Sc1nnc(-c2ccccc2)c(-c2ccccc2)n1: 222 to 224 °C
O=C(O)CNC(=O)c1ccc(S(=O)(=O)Cl)cc1: 130 to 132 °C
N#Cc1cc(N)ccc1Oc1ccc(C(F)(F)F)cc1: 75 to 77 °C
CC(=O)NCC1CCNCC1: 97 to 99 °C
NC(=O)c1ccoc1: 174 to 176 °C
Cc1nc(C)c(C)c(O)n1: 276 to 278 °C

Entry `O=C(O)c1cc(-c2ccc(C(F)(F)F)cc2)no1` — recorded melting point = 329 to 331 °C

Entry CC(N)c1ccc2c(c1)CC(=O)N2C (stereo not drawn) — recorded melting point = 101 to 103 °C

Entry `O=C(O)CCC(=O)c1ccc(I)cc1` — recorded melting point = 175 to 177 °C

----------
In this section, each of the compounds is paired with its reported melting point.

O=C(O)c1cn(-c2cccc(C(F)(F)F)c2)nn1: 149 to 151 °C
O=C(CC(=O)Nc1ccccc1)Nc1ccccc1: 220 to 222 °C

Entry CC(NC(=O)OCc1ccccc1)C(=O)N1CCNC(=O)C1 (stereo not drawn) — recorded melting point = 154 to 156 °C

Entry `NS(=O)(=O)c1cnccn1` — recorded melting point = 166 to 168 °C

Entry O=C1Nc2ccccc2NC1CO (stereo not drawn) — recorded melting point = 140 to 142 °C

Entry `NS(=O)(=O)c1cccc(N2C(=O)C=CC2=O)c1` — recorded melting point = 220 to 222 °C

Entry `c1ccc(CC2CCN(c3ncnc4sccc34)CC2)cc1` — recorded melting point = 124 to 126 °C

Entry `Cc1cc(O)nc(-c2ccc(-c3ccccc3)cc2)n1` — recorded melting point = 275 to 277 °C

Entry `O=c1n(CCCO)nc2ccccn12` — recorded melting point = 81 to 83 °C

Entry O=C(O)C1CCCN1c1ncccn1 (stereo not drawn) — recorded melting point = 139 to 141 °C

Entry `CCOC(=O)c1c(C)n(CC)c2ccc(O)cc12` — recorded melting point = 183 to 185 °C

Entry `Fc1ccc(-c2nnc(S)n2CCN2CCOCC2)cc1` — recorded melting point = 212 to 214 °C

Entry `O=Cc1sc(N2CCOCC2)nc1-c1ccccc1` — recorded melting point = 181 to 183 °C

----------
In this section, each of the molecules is paired with its reported melting point.

NNc1nc2ccccc2[nH]1: 80 to 82 °C

Entry `O=C1C(=O)N(CN2CCN(CCO)CC2)c2ccccc21` — recorded melting point = 157 to 159 °C

Entry `Cc1ccc(N2C(=O)Cc3ccccc3C2=O)cc1` — recorded melting point = 173 to 175 °C

Entry `CC(=O)c1oc2ccccc2c1N` — recorded melting point = 154 to 156 °C

Entry `Cc1c(Cl)ccc(C(=O)O)c1N` — recorded melting point = 208 to 210 °C

Entry `Cc1cc(F)cc2[nH]c(C(=O)O)cc12` — recorded melting point = 261 to 263 °C

Entry `COC(=O)c1nc(Cl)c2ccccc2c1O` — recorded melting point = 162 to 164 °C

----------
OBSERVED_PROPERTY: melting point

Example cases with answers are listed next.
CC(=O)c1ccccc1NC(=O)CCCCl: 55 to 57 °C
O=C(O)CSC(O)C(=O)c1ccccc1 (centres undefined): 113 to 115 °C

Entry `COc1ccc(N)cc1S(=O)(=O)N(C)C` — recorded melting point = 144 to 146 °C

Entry `O=c1c2ccccc2nnn1CCl` — recorded melting point = 129 to 133 °C

Entry `Nc1nnc(N2CCC(C(=O)O)CC2)[nH]1` — recorded melting point = 264 to 266 °C

Entry CC(C)(C)OC(=O)NC1CCCC(C(=O)O)C1 (centres undefined) — recorded melting point = 126 to 128 °C
